Reference source: patent US20210395713A1

Target: T1, purified recombinant MHC II protein, allele DRB1*1501 (human)
T1 construct: bought from Benaroya Research Institute; also called MHC-II DR molecule
Test: MHC II competition binding assay;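 further: Peptide–MHC II complexes pulled from equilibrium mixtures onto ELISA plates carrying a conformation-specific anti-HLA-DR antibody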
property: IC50 (nM)
Answers are plain numbers, in nM.

Examples with answers:
[[record]]
binder = "GVDFFMNIGTPVKAISSGKIV [cluster 2 wild-type (C2WT) epitope peptide]"
u = "nM"
value_observed = 2370

[[record]]
binder = "GVDFFMNIGTPVHAISSGKIV (synthetic mutated peptide of the lysostaphin catalytic domain; also called K46H) [cluster 2 peptide with Lys46His]"
u = "nM"
value_observed = 2550


# context switch: different binder, same IC50
In: What does the record list as IC50 for GVDFFMNEGTPVKAISSGKIV (synthetic mutated peptide of the lysostaphin catalytic domain; also called I41E) [cluster 2 peptide with Ile41Glu] ?
Out: 7440
